The reported measurements were obtained from the supplement of paper PMC10567573.

B1: EPB41L3 (parent)
chain: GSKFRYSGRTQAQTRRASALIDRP

Variants of: B1
Assay: protein stability index of a GFP-peptide fusion (GPS, HEK-293T) (PSI 1-6); higher = more stable;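 note: lentivirally expressed fusions sorted by FACS into six bins by GFP to DsRed ratio, PSI derived from sequencing read proportions per bin multiplied by bin number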
Settings: c terminus: a fixed tail appended
QUANTITY: protein stability index

{"VARIANT": "A17D", "protein stability index": 3.41}
{"VARIANT": "L20H", "protein stability index": 3.37}
{"VARIANT": "A12Y", "protein stability index": 2.89}
{"VARIANT": "L20I", "protein stability index": 3.19}

// query Which protein stability index is listed for R23D ?
// result 3.44

// query What do we get for D22T ?
// result 3.02
